Test: Caco-2 permeability assay
Format: in vitro ADME
Settings: human, Caco-2, pH 7.4; B-A/A-B
QUANTITY NAME: efflux ratio at 2 h, 10 μM

CCC(C)(O)c1cc(F)c(CC(=O)Nc2ccnc(C(=O)NC3(C(F)(F)F)CC3)c2)cc1O (stereo not drawn) ... 1
O=C(Cc1cc(O)c(C2(CO)CCC2)cc1F)Nc1ccnc(C(=O)NC2(C(F)(F)F)CC2)c1 ... 2.6
CC(C)(CO)c1cc(Cl)c(CC(=O)Nc2ccnc(C(=O)NC3(C(F)F)CC3)c2)cc1O ... 19.8
CC(C)(O)c1cc(F)c(CC(=O)Nc2ccnc(C(=O)NC3(C(F)(F)F)CC3)c2)cc1O ... 1.8

What measured efflux ratio at 2 h, 10 μM goes with "CC(C)(CCO)c1cc(F)c(CC(=O)Nc2ccnc(C(=O)NC3(C(F)(F)F)CC3)c2)cc1O" ?
2.3

And the next one, "CC(C)(CO)c1cc(F)c(CC(=O)Nc2ccnc(C(=O)NC3(C(F)(F)F)CC3)c2)cc1O" ?
2.4

---

Reported activation at 3.33 µM values follow for various molecules
Biological target: human TMEM16A (TMEM16Aabc variant) (Homo sapiens, UniProt Q5XXA6, DEL476-501)
Sequence (Q5XXA6 with tags, fused parts or gaps isoform Q5XXA6-5 DEL539-564): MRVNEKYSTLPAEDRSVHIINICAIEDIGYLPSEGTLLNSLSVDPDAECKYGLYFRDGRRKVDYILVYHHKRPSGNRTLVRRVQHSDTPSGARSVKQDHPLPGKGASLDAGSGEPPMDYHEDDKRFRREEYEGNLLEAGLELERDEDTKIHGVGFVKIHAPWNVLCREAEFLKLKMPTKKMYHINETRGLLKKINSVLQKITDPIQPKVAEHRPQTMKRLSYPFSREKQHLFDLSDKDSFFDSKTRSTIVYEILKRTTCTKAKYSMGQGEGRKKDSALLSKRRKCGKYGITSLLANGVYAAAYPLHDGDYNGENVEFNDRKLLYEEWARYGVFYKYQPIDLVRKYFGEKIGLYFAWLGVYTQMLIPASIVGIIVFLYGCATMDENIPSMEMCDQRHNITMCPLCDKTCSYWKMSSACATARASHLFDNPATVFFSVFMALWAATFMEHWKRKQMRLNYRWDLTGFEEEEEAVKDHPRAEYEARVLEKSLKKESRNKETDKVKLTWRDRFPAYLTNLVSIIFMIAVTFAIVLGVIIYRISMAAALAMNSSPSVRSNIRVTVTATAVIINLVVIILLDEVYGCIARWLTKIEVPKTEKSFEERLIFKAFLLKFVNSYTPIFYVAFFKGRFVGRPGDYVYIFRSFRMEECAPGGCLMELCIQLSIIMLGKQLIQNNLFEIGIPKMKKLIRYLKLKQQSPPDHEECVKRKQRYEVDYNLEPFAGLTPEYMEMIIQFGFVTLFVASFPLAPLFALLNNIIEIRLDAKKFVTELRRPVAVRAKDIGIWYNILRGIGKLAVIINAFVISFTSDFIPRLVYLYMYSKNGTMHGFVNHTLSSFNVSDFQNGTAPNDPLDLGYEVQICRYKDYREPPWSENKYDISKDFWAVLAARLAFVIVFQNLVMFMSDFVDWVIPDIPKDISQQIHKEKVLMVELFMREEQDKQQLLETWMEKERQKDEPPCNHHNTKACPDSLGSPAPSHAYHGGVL
Assay: Automated whole-cell patch clamp (Qpatch) TMEM16A potentiator assay in recombinant FRT cells
Assay type: cell-based
Conditions: 3.33 uM, percentage increase of baseline TMEM16A current, minimum n = 2, read-out: % Potentiation @ 3.33 uM Avg
Reply with the number, then its unit.

Would you please look over these solved cases?
C#CC(C)(C)NC(=O)c1cc(NC(=O)Cc2cc(O)c(C(C)(C)CO)cc2F)ccn1 ... 74.5%
CC(C)(O)c1cc(Cl)c(CC(=O)Nc2ccnc(C(=O)NC3(C(F)(F)F)CC3)c2)cc1O ... 244%
O=C(Cc1cc(O)c(C2(CO)CC2)cc1F)Nc1ccnc(C(=O)NC2(C(F)(F)F)CC2)c1 ... 227%
CC(C)(C)c1cc(Cl)c(CC(=O)Nc2ccnc(C(=O)NC3(C(F)(F)F)CC3)c2)cc1O ... 250%

What measured activation at 3.33 µM goes with "CC(C)(O)c1cc(F)c(CC(=O)Nc2ccnc(C(=O)NC3(C(F)(F)F)CC3)c2)c(Cl)c1O" ?
315%

And the next one, CC(O)(c1cc(F)c(CC(=O)Nc2ccnc(C(=O)NC3(C(F)(F)F)CC3)c2)cc1O)C1CC1 (centres unmarked) ?
302%

And the next one, "CC(C)(CO)c1cc(F)c(CC(=O)Nc2ccnc(C(=O)NC3(CO)CCC3)c2)cc1O" ?
342%

And the next one, O=C(Cc1cc(O)c(C(CO)C(F)(F)F)cc1F)Nc1ccnc(C(=O)NC2(C(F)(F)F)CC2)c1 (centres unmarked) ?
374%

---

Experiment: Log D (pH7.4 shake flask)
Format: physicochemical
Conditions: pH 7.4; 1-octanol/phosphate buffer shake flask; read-out: mLogD (pH 7.4)
Reported logD values follow for various molecules
// return just the number, without any unit appended

What measured logD goes with CC(C)(C#N)NC(=O)c1cc(NC(=O)Cc2cc(O)c(C(C)(C)CN3CCOCC3)cc2F)ccn1 [Example 2.5] ?
2.7

And the next one, N#CC1(NC(=O)c2cc(NC(=O)Cc3cc(O)c(C4(C(F)(F)F)CC4)cc3F)ccn2)CC1 [Example 9] ?
3.5

And the next one, [2H]c1c(O)c(C(C([2H])([2H])[2H])(C([2H])([2H])[2H])C([2H])([2H])[2H])cc(F)c1CC(=O)Nc1ccnc(C(=O)NC2(C#N)CC2)c1 [Example 4] ?
3.8
